# Assay info: melting temperature; fluorescence melt of hairpins on a sequencing array, two-state fit, raised by 9.35 °C to match UV melts
# Stated conditions: sodium 0.088 M
Could you please classify the records by Tm using these ranges: bottom range = under 40 °C, center range = from 40 °C up to 60 °C, top range = 60 °C and over

| Ordered residues | Label |
| --- | --- |
| GGAAACGAAAGTTATCC ((((((....))).))) | bottom range |
| GCGAGGCGAAAGCCCTGC ((..(((....)))..)) | center range |
| GATCCTCTTTAGGATC ((((((....)))))) | center range |
| GCTGGCGAAAGCCACAGC ((((((....)))..))) | center range |
| GCAAAACGAAAGTTATGC (((.(((....))).))) | center range |
| GCGTCGCGAAAGCTCCGC (((..((....))..))) | center range |
| GATCATGGCTATGATC ((((((....)))))) | center range |
| GCAAAGCGAAAGCCTAGC ((.(.((....)).).)) | bottom range |
| GACTCCGGAAACGGAATC ((.((((....)))).)) | bottom range |
| GATCCAGCAATGGATC ((((((....)))))) | center range |
| GCGGGGCGAAAGCCTAGC ((..(((....)))..)) | top range |
| GCGGCCGAAAGGCAACGC ((((((....)))..))) | top range |
| GGGTTCGAAAGAAGCCCC ((((((....)))..))) | center range |
| GATCTCGCAAGAGATC ((((((....)))))) | top range |
| GGGACTGGAAACAGCCCC (((.(((....))).))) | center range |
| GTCCTGGGAAACCAGGAC (((((((....))))))) | top range |
| GAACACGGAAACGCGTTC ((((.((....)).)))) | center range |
| GGTTTTGGAAACAGAACC ((((.((....)).)))) | center range |
| GCGCCCGAAAGGGCACGC ((((((....)))..))) | top range |
| GGGTTACGAAAGTATCCC (((.(((....))).))) | center range |
| GGACGGGGAAACCCGTTC (.(((((....))))).) | center range |
| GCCACCGGAAACGGCGAC (.(.(((....))).).) | bottom range |
| GATCTTTGCGAAGATC ((((((....)))))) | center range |
| GCCTTCGAAAGAAAGGGC ((((((....)))..))) | center range |
| GATCCGAAGCGGATC ((((((...)))))) | center range |
| GAACTACGAAAGTAATTC (((.(((....))).))) | bottom range |
| GGGCATCCGAAAGGACCC (((..(((....)))))) | bottom range |
| GTACGGGGAAACCCACAC ((..(((....)))..)) | bottom range |
| GTTCACGAAAGTGAAAC ((((((....))).))) | center range |
| GCAGTGCGAAAGCGGTGC (((..((....))..))) | top range |
| GATAAACGAAAGTTAATC (((.(((....))).))) | bottom range |

From: the array DNA melting data of Ke et al. (doi:10.1101/2024.01.08.574731)
